Molecular target: T1, FZD1 CRD (Homo sapiens, UniProt Q9UP38)
T1 construct: D112-P238; GPI anchor signal (C); expressed in transfected cells; host or cells: CHO cells, lentiviral pLenti-puro
Test: Immunofluorescence of anti-FZD5 Fab binding to CHO cells overexpressing Frizzled CRD
Parameters: key: −: no binding; +: very weak binder; ++: weak binder; +++: good binder; ++++: very good binder
Metric: Immunofluorescence binding, Frizzled CRD overexpressed on CHO cells: FZD1

Molecule	Value observed
Fab-2919: anti-FZD5 Fab with antibody variable region Fv-2919; CDR SEQ ID NOs: 35, 36, 58, 97, 134, 155 (antibody, V domains shown) VH: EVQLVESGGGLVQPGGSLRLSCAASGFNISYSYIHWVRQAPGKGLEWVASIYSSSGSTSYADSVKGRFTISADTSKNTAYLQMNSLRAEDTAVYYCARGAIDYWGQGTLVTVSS VL: DIQMTQSPSSLSASVGDRVTITCRASQSVSSAVAWYQQKPGKAPKLLIYSASSLYSGVPSRFSGSRSGTDFTLTISSLQPEDFATYYCQQWYSSGHVLITFGQGTKVEIK	−
Fab-2922: anti-FZD5 Fab with antibody variable region Fv-2922; CDR SEQ ID NOs: 35, 36, 61, 99, 137, 171 (antibody, V domains shown) VH: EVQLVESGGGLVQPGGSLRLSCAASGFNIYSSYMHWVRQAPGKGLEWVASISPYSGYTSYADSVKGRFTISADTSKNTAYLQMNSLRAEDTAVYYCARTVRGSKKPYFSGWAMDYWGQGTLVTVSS VL: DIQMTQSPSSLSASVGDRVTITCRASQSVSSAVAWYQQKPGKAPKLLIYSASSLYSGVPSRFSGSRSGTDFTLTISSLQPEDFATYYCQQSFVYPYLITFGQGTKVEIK	−
Fab-2911: anti-FZD5 Fab with antibody variable region Fv-2911; CDR SEQ ID NOs: 35, 36, 50, 89, 126, 163 (antibody, V domains shown) VH: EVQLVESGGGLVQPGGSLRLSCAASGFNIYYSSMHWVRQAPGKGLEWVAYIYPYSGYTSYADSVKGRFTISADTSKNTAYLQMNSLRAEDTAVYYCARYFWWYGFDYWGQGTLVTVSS VL: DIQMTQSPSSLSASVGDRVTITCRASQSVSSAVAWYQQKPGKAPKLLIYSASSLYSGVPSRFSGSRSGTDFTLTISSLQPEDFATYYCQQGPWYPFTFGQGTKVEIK	++
Fab-2912: anti-FZD5 Fab with antibody variable region Fv-2912; CDR SEQ ID NOs: 35, 36, 51, 90, 127, 164 (antibody, V domains shown) VH: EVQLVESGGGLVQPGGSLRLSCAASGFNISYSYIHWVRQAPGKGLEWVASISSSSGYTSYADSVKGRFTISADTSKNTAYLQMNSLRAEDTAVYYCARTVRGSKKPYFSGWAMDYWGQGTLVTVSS VL: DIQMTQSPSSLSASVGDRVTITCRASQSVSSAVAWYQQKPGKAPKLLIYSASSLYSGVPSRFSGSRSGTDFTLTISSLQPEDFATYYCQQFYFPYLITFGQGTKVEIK	+
Fab-2918: anti-FZD5 Fab with antibody variable region Fv-2918; CDR SEQ ID NOs: 35, 36, 57, 96, 133, 169 (antibody, V domains shown) VH: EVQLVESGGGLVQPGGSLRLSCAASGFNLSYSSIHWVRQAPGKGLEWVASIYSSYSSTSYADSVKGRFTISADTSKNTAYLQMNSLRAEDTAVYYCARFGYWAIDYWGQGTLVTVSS VL: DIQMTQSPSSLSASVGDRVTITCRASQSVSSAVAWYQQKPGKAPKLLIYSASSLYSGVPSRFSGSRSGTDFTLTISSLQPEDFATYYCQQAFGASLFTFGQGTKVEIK	−
Fab-2927: anti-FZD5 Fab with antibody variable region Fv-2927; CDR SEQ ID NOs: 35, 36, 66, 104, 142, 174 (antibody, V domains shown) VH: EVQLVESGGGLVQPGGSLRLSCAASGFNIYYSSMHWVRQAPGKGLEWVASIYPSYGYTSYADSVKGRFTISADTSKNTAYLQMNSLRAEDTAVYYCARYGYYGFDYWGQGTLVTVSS VL: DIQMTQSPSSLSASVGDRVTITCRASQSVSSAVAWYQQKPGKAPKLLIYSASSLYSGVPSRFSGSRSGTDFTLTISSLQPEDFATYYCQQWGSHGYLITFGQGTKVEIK	+++
Fab-2934: anti-FZD5 Fab with antibody variable region Fv-2934; CDR SEQ ID NOs: 35, 36, 73, 110, 149, 155 (antibody, V domains shown) VH: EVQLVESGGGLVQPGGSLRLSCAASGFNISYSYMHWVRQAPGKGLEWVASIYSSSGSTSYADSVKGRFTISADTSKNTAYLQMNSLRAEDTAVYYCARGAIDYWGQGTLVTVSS VL: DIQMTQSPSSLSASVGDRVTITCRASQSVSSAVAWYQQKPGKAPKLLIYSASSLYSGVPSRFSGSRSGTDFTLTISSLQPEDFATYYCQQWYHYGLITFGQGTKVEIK	−
Fab-2933: anti-FZD5 Fab with antibody variable region Fv-2933; CDR SEQ ID NOs: 35, 36, 72, 109, 148, 177 (antibody, V domains shown) VH: EVQLVESGGGLVQPGGSLRLSCAASGFNLYSSYMHWVRQAPGKGLEWVASIYSSYGYTSYADSVKGRFTISADTSKNTAYLQMNSLRAEDTAVYYCARTVRGSKKPYFSGWAMDYWGQGTLVTVSS VL: DIQMTQSPSSLSASVGDRVTITCRASQSVSSAVAWYQQKPGKAPKLLIYSASSLYSGVPSRFSGSRSGTDFTLTISSLQPEDFATYYCQQFWWYASWLFTFGQGTKVEIK	+

src = patent US20210253718A1
